- system: Follistatin-related protein 3 (Homo sapiens) (UniProt O95633)
- Sequence (O95633 whole entry, looked up): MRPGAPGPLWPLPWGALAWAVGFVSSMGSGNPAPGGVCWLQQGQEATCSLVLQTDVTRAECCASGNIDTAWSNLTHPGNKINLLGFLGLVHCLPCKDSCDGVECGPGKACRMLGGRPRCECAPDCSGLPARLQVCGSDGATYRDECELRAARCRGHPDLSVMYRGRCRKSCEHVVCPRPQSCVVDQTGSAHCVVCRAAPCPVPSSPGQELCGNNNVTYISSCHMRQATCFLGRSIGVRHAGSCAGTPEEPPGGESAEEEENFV
- test.details: FSTL3 binders on small-molecule microarrays, primary screen, biochemical, small-molecule microarray, 635 nm fluorescence (AID 1105);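 further: score merges emission near 667 nm and signal to noise per printed spot across three slides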
- reported.conditions: FSTL3 binding, higher = more signal
I would appreciate it if you labelled entries met when composite z-score is 0.8 or higher, otherwise not met.

Solved entries:
compound	classification
CC(C)CON=C1C[C@@H](O)[C@@H](O)[C@@H]2[C@@H]3C(=O)N([C@@H](C)c4ccccc4)C(=O)[C@@H]3CC[C@@H]12	not met
CC(C)CON=C1C[C@@H](O)[C@@H](O)[C@@H]2[C@@H]3C(=O)N(Cc4ccccc4)C(=O)[C@@H]3CC[C@H]12	not met
CCC1=NOC(CCC2CC(OC(=O)NCc3cccc4c3OCO4)CC3(CCCC(COC(=O)NCCc4ccc(Cl)cc4)O3)O2)C1 (stereo not given)	not met
O=C1C[C@H](c2ccccc2)[C@H](c2ccc(Br)cc2)O1	not met
CCOC(=O)CCN1C(=O)[C@H]2[C@H]3[C@H](O)[C@H](O)CC(=NOCC=C(C)CCC=C(C)C)[C@@H]3CC[C@H]2C1=O	met

Prompt line: Please indicate if the recorded composite z-score for `CCN1C(=O)[C@H]2[C@H]3[C@H](O)[C@H](O)CC(=NO[C@H](C)c4cn([C@H](CO)Cc5ccccc5)nn4)[C@@H]3CC[C@H]2C1=O` meets or exceeds 0.8.
Response line: met

Prompt line: Please indicate if the recorded composite z-score for `COc1ccc(COC(=O)NN=C2C[C@@H](O)[C@@H](O)[C@@H]3[C@@H]4C(=O)N(C[C@@H]5CCCO5)C(=O)[C@@H]4CC[C@H]23)cc1` meets or exceeds 0.8.
Response line: not met

###

The following compounds are shown together with reported composite z-score values.
- test.details: small-molecule microarray binders of probe aDKK1, primary screen, biochemical, biotinylated probe, 635/667 nm fluorescence (AID 1099);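 further: score merges 667nm spot fluorescence with signal to noise across triplicate slides; reference of the scale not given here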
- reported.conditions: higher = more signal
Respond with the number and no other words.

Solved entries (count: 6):
compound	experimental.endpoint	observed.measurement
CCCCOC(OCCCC)C(O)CSc1ccc2ccccc2c1 (stereo unspecified)	composite z-score	0.166
CC(=O)OC[C@H]1O[C@H](CC=NOCC[C@@H]2C=C[C@H](OC(C)=O)[C@@H](COC(C)=O)O2)C=C[C@@H]1OC(C)=O	composite z-score	0.771
CC(C)=CCCC(C)=CCON=C1C[C@@H](O)[C@@H](O)[C@@H]2[C@@H]3C(=O)N(Cc4ccc5c(c4)OCO5)C(=O)[C@@H]3CC[C@@H]12	composite z-score	-0.268
CC(C)=CCCC(C)=CCON=C1C[C@@H](O)[C@@H](O)[C@@H]2[C@@H]3C(=O)N(c4cccc(Oc5ccccc5)c4)C(=O)[C@@H]3CC[C@H]12	composite z-score	-0.183
Cc1ccc(S(=O)(=O)N[C@@H]2COC(=O)CC=C[C@@H](C)[C@H](NS(=O)(=O)c3ccc(C)cc3)COC(=O)[C@H](C)NC(=O)CC=C[C@H]2C)cc1	composite z-score	-0.472
COC(=O)CC=C[C@@H](C)[C@@H](C=NOC[C@@H](O)[C@H]1O[C@@H]2OC(C)(C)O[C@@H]2[C@H]1O)OC	composite z-score	-0.0276

Value of measured composite z-score for the entry `O=C1C[C@@H](O)[C@@H](O)[C@@H]2[C@@H]3C(=O)N(C4CCCCC4)C(=O)[C@@H]3CC[C@@H]12` : -0.28

Value of measured composite z-score for the entry `O=C(NN=C1C[C@@H](O)[C@@H](O)[C@@H]2[C@@H]3C(=O)N(Cc4ccccc4)C(=O)[C@@H]3CC[C@H]12)OCc1ccccc1` : -0.427

Value of measured composite z-score for the entry `COC(=O)CC=C[C@@H](C)[C@@H](C=NOC[C@@H](O)COCc1ccco1)OC` : -0.589

Value of measured composite z-score for the entry `O=C1C=C[C@@H](O)[C@@H]2[C@@H]3C(=O)N(Cc4ccccc4)C(=O)[C@@H]3CC[C@@H]12` : -0.262

Value of measured composite z-score for the entry `C#CCCCON=C1C[C@@H](O)[C@@H](O)[C@@H]2[C@@H]3C(=O)N([C@@H](C)c4ccccc4)C(=O)[C@@H]3CC[C@@H]12` : -0.292

Value of measured composite z-score for the entry CCN(CC)CC(O)CN1CCCCc2nc(C)c(C)cc21 (stereo unspecified) : -0.33

Value of measured composite z-score for the entry `O=C1[C@H]2[C@H]3[C@H](O)[C@H](O)CC(=NOC[C@@H](O)COCc4ccco4)[C@@H]3CC[C@H]2C(=O)N1C1CCCCC1` : -0.401

Value of measured composite z-score for the entry O=C1CCCC=C1C(O)C1CCCCC1 (stereo unspecified) : -0.214

Value of measured composite z-score for the entry COC(=O)[C@H](C)NC(=O)CCC1CC(OC(=O)NCCc2ccc(F)cc2)CC2(CCCC(COC(=O)NCC3CCCCC3)O2)O1 (stereo partly specified) : -0.262
